- System: NCI-H23 lung
- Assay Notes: NCI-60 one-dose screen, 48 h (100 = growth as untreated, 0 = no growth, -100 = all killed)
- Test Conditions: 10 µM unless noted
- Experimental: Growth inhibition of the NCI-H23 human Non-Small Cell Lung tumor cell line is measured as a screen for anti-cancer activity. Cells are grown in 96 well plates and exposed to the test compound for 48 hours. Compounds are tested at a single concentration, which is 10^-5 M for most compounds. The reported endpoint is percent growth (GI% or GIPRCNT), where numbers from 0 - 100% represent growth inhibition, and numbers from -100% - 0 represent cell death. […]
This is part of a sample that, as a whole, favours compounds with a hit. Of some 83,000 tested, about 20% had one in any assay.
Value Type: growth (%)
Value expressed in %; do not type the unit.

Before answering, review these 3 worked examples.
Compound: COc1ccc(C2C=C(c3ccc(Cl)cc3)N=C3SC=C(C)N32)c(Br)c1 (centres undefined)
Measurement Units: %
growth: 50.1
--
Compound: CCOC(=O)c1cc(C(=O)c2cc(OC)c(OC)c(OC)c2)n2c1ccc1ccccc12
Measurement Units: %
growth: 50.2
--
Compound: O=C1NN(C(=O)c2ccc(Cl)cc2)C(c2ccccc2)=N/C1=C\c1cn(-c2ccccc2)nc1-c1ccccc1
Measurement Units: %
growth: 89.6

Challenge: Look at this compound and give its reported growth. COc1cc(-c2nn(C(=O)NS(=O)(=O)c3ccccc3)cc2-c2ccncc2)ccc1Cl
Response given: 88.1
